# assayName: Microsomal intrinsic clearance
# measurementSetup: mouse, microsomes, NADPH-free T1/2 (half-life), mouse microsomes, test conc. 1 μM
parameter: half-life at 1 μM (h)

{"moleculeSmiles": "Cc1nn(C)c2nc(NNC(=O)Nc3cc(Cl)nc(Cl)c3)cc(C(C)C)c12", "assayValue": 1.75}

###

# assayName: Blood concentrations and pharmacokinetics after 1 mg/kg i.v. in mice
# Type: in vivo, mouse
# measurementSetup: mouse, in vivo, iv, 1 mg/kg, mouse, 5 min, individual mice, LLOQ = 1 ng/mL, read-out: Blood Concentrations
parameter: concentration at 5 min (ng/mL)

{"moleculeSmiles": "Cc1nn(C)c2nc(NNC(=O)Nc3cc(Cl)nc(Cl)c3)cc(C(C)C)c12", "assayValue": 282}
